# Subject of test: human PD-L1 / Human PD-1 (Homo sapiens (Human))
# Sequence (Q9NZQ7 19-239): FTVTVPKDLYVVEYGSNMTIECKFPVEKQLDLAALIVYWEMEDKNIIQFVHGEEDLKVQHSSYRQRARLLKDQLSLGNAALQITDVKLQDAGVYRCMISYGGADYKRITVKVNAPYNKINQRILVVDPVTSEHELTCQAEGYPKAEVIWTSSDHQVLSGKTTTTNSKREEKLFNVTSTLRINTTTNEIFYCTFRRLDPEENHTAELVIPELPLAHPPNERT
# Protocol notes: Enzyme-Linked Immunosorbent Assay (ELISA), PD-1/PD-L1 binding
# Condition: plate-coated human PD-L1, biotinylated human PD-1
pIC50: −log10 of the molar value.
Measurement label: pIC50

Example cases with answers are listed next.
Cc1c(OCCCN2CCC(O)CC2)cccc1-c1cccc2c1CC[C@@H]2Oc1cc(OCc2cncc(C#N)c2)c(CN[C@H](C(N)=O)[C@@H](C)O)cc1Cl : > 8.30
Cc1c(OCCCN2CCC[C@H]2CO)cccc1-c1cccc2c1CC[C@@H]2Oc1cc(OCc2cncc(C#N)c2)c(CN[C@H](C(=O)O)[C@@H](C)O)cc1Cl : > 8.30

Problem: Provide measured pIC50 value, entry: CC1(F)CCN(CCCOc2cccc(-c3cccc4c3CC[C@@H]4Oc3cc(OCc4cc(C#N)cc(C#N)c4)c(CN[C@H]4CCC(=O)NC4)cc3Cl)c2Cl)CC1
Result: 6.30 to 8.30

Hey, just so you know, these numbers are from patent US10919852B2.
